# system-under-test: GORASP1, Q9BQQ3
# Sequence (Q9BQQ3 1-208): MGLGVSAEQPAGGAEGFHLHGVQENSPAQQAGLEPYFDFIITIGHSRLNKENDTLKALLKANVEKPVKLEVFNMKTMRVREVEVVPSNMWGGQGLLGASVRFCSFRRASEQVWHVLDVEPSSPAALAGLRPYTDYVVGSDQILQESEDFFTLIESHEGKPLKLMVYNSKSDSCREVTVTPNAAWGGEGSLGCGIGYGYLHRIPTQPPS
# test-method-notes: holdup assay
# Set-up: key: below the threshold = too weak to quantify, mostly under pKd 3.1 to 4
# condition-summary: plain residues with an end cap or a label only (N-terminal biotin on a linker: ado-ado)
Listing of entries alongside the reported pKd.
quantity-kind: pKd

>>> readout_number("PDSYHRRDFW [U2AF2, P26368]")
3.52
>>> readout_number("THHRKIHTRV [ZNF599, Q96NL3]")
3.87
>>> readout_number("DFKHTKSFII [JAM2, P57087]")
5.07
